experiment: Potency index, ratio of compound LD50 to isoniazid LD50 for mouse; format: ADME; details: in vivo
MEASURED_ENDPOINT: selectivity ratio
One number for each entry.

[[record]]
record_smiles = "O=[N+]([O-])c1ccc(-c2ncncc2-c2ccccc2)o1"
observed = 3


Next item in the queue.
State its selectivity ratio for this compound: O=[N+]([O-])c1ccc(-c2ncncc2Br)o1
2

====

assay: Toxicity in orally dosed mouse; format: organism-based; conditions: in vivo, po
MEASURED_ENDPOINT: LD50

Please indicate LD50 recorded for CN[C@@H]1[C@H](O)[C@H](NC)[C@H]2O[C@@]3(O)C(=O)C[C@@H](C)O[C@H]3O[C@@H]2[C@H]1O [SPECTINOMYCIN]
> 10000 mg/kg

====

Exercise: for every item that follows, state its recorded MIC.
tested on: Staphylococcus aureus; assay: Antibacterial activity against Staphylococcus aureus ATCC 25923 by two-fold serial dilution method; format: functional
One number for each entry, in µg/mL.

Solved entries:
[[record]]
record_smiles = "O=[N+]([O-])c1ccc(-c2ncncc2-c2ccccc2F)o1"
target_desc = "Staphylococcus aureus"
observed = 15.6

[[record]]
record_smiles = "O=[N+]([O-])c1ccc(-c2ncncc2-c2ccc(C(F)(F)F)cc2C(F)(F)F)o1"
target_desc = "Staphylococcus aureus"
observed = 15.6

[[record]]
record_smiles = "O=[N+]([O-])c1ccc(-c2ncncc2-c2ccccc2)o1"
target_desc = "Staphylococcus aureus"
observed = 15.6

[[record]]
record_smiles = "O=[N+]([O-])c1ccc(-c2ncncc2-c2ccc(F)cc2)o1"
target_desc = "Staphylococcus aureus"
observed = 62.5

[[record]]
record_smiles = "CN[C@@H]1[C@H](O)[C@H](NC)[C@H]2O[C@@]3(O)C(=O)C[C@@H](C)O[C@H]3O[C@@H]2[C@H]1O"
target_desc = "Staphylococcus aureus"
observed = 31.2


Record MIC per entry; entries follow.
1. O=[N+]([O-])c1ccc(-c2ncncc2-c2ccccc2C(F)(F)F)o1
2. O=[N+]([O-])c1ccc(-c2ncncc2Br)o1
3. O=[N+]([O-])c1ccc(-c2ncncc2-c2ccc(F)cc2F)o1

15.6
7.8
31.2

====

assay: Cytotoxicity against mouse MacCoy B cells after 24 hrs by p-Nitro-Blue tetrazolium chloride dye based colorometric method; type: cell-based
pIC50: −log10 of the molar value.
Think of 4 as a floor: if pIC50 stands on it or above, it is class 1; beneath it, class 0.

[[record]]
molecule = "O=[N+]([O-])c1ccc(-c2ncncc2Br)o1"
group = "class 0"

[[record]]
molecule = "O=[N+]([O-])c1ccc(-c2ncncc2-c2ccc(F)cc2F)o1"
group = "class 1"


For this molecule, is measured pIC50 4 or higher? O=[N+]([O-])c1ccc(-c2ncncc2-c2ccccc2F)o1
class 1

Would you say O=[N+]([O-])c1ccc(-c2ncncc2-c2ccccc2C(F)(F)F)o1 shows pIC50 at minimum 4?
class 1

Does pIC50 meet or surpass 4 for O=[N+]([O-])c1ccc(-c2ncncc2-c2ccc(C(F)(F)F)cc2C(F)(F)F)o1 ?
class 1

Tell me whether pIC50 is at least 4 here: O=[N+]([O-])c1ccc(-c2ncncc2-c2ccc(F)cc2)o1
class 1

Decide: pIC50 of CN[C@@H]1[C@H](O)[C@H](NC)[C@H]2O[C@@]3(O)C(=O)C[C@@H](C)O[C@H]3O[C@@H]2[C@H]1O [SPECTINOMYCIN] >= 4?
class 0

Answer whether pIC50 of O=[N+]([O-])c1ccc(-c2ncncc2-c2ccccc2)o1 is greater than or equal to 4.
class 1

Recorded values, source ChEMBL document CHEMBL4033695.
